Target: SEB (Staphylococcus aureus, UniProt P01552)
Design: species or system BALB/c mice
Conditions: mouse
Non-standard residues stand in square brackets, D forms with d. No end group written: not given here.
readout: molar excess (ratio) over SEB at which protective in vivo (fold)
Write the answer as a number in fold, unit excluded.

Please review the following examples before continuing.
- substance: "HVKGKHLCP (Synthetic peptide p1TA)"
  result: 3.6
- substance: "YVIDPEPCP (Synthetic peptide p1TB)"
  result: 3.6
- substance: "PAVVLASS (Synthetic peptide p2TB)"
  result: 2
- substance: "daV Q Y N K K K A T V Q E L Dda ([dA]VQYNKKKATVQELD[dA]) [p14A]"
  result: 12

Here is the next item to consider.
Lab entry: SEB (Staphylococcus aureus, UniProt P01552) assay, substance SPMLVAYD [p2TA] , molar excess (ratio) over SEB at which protective in vivo = 0.8
